tested on: PC-3 prostate; test: NCI tumour cell line growth inhibition, 48 h
Can you tell me GI50 for the items I'm about to list?

compound="CCOC(=O)CC1C(CNC(=O)NC)OC(n2cnc3c(NC(=O)Nc4ccccc4)ncnc32)C1O[Si](C)(C)C(C)(C)C (stereo not drawn)" result="2250 nM"
compound=COc1cc2c3c(n(CCCN=[N+]=[N-])c(=O)c2cc1OC)-c1ccc(NC(C)=O)cc1C3=O result="> 50000 nM"

Kindly review the next compound as well.
Exercise: Give its GI50 value. Item: `CCN1C(=O)N[C@H]2[C@@H]3NC(=O)c4ccc(Cl)n4[C@@H]3C[C@]21O`
Key: 1680 nM

###

tested on: CCRF-CEM leukemia; assay: NCI tumour cell line growth inhibition, 48 h
Reported Metric: TGI

These solved cases illustrate the format of a correct answer.
molecule="COc1ccc(/C=N/C2=NNC(C)(c3ccccc3O)N2C(Cc2c[nH]c3ccccc23)C(=O)O)cc1 (stereo not given)" test_system="CCRF-CEM leukemia" result="40.4 µM"
molecule=N#CC(C(=S)Nc1ccccc1)=C1Nc2ccccc2N1 test_system="CCRF-CEM leukemia" result="> 10 µM"
molecule=COc1cccc(C=C(C#N)C#N)c1OC test_system="CCRF-CEM leukemia" result="> 100 µM"
molecule=COc1cc2cc[n+](C)c(Cc3ccc(Oc4cc(Cc5c6cc(OC)c(OC)cc6cc[n+]5C)ccc4OC)cc3)c2cc1OC test_system="CCRF-CEM leukemia" result="> 100 µM"

Can you give me TGI for all of these, one by one?
1. O=C1c2ccccc2-c2c1c1ccc([N+](=O)[O-])cc1c(=O)n2CCN1CCOCC1
2. COc1ccccc1CNC(=O)/C=C/c1ccc(O)c(O)c1
3. CC1=C(c2ccccc2)CON(c2ccccc2)C1
4. Cc1cc(=O)[nH]c(S(=O)(=O)NC(=O)Nc2cccc(Cl)c2)n1
5. CC(C)(C)[Si](C)(C)O/N=C\c1cccc(O[Si](C)(C)C(C)(C)C)c1
6. Clc1ccc2c(NCCNc3nc(N4CCCCC4)nc4ccccc34)ccnc2c1
7. CC(=O)NC(CCCCN(Cc1ccccc1)C(=O)N(C)N=O)C(=O)NCc1ccccc1 (stereo not given)

Key:
1: > 100 µM; 2: > 100 µM; 3: > 100 µM; 4: > 100 µM; 5: 41.7 µM; 6: 45.4 µM; 7: > 100 µM

Can you give me TGI for all of these, one by one?
1. COc1ncc(-c2ccc3ncnc(Nc4cccc(Cl)c4)c3c2)cc1NS(C)(=O)=O
2. CC(C)C(=O)/C=C/c1ccc(Cl)cc1Cl
3. O=C(Cc1ccccc1)Nc1nc2ccc(Cl)cc2c2nc(-c3ccco3)nn12
4. CC/C(=N/O)C(C)C(=O)CCC(=O)Nc1ccc(Cl)cc1 (stereo not given)

Key:
43.2 µM
50.7 µM
> 100 µM
> 100 µM

###

Can you tell me TGI for the items I'm about to list?
tested on: HL-60(TB) leukemia; experiment: NCI tumour cell line growth inhibition, 48 h

Can you give me TGI for all of these, one by one?
1. CC/C(=N/O)C(C)C(=O)CCC(=O)Nc1ccc(Cl)cc1 (stereo unspecified)
2. CCOc1cc2cnc3c4cc(OC)c(OC)cc4ccc3c2cc1OC

Key:
> 100 µM
> 100 µM

Can you give me TGI for all of these, one by one?
1. O=C(/C=C/c1ccco1)N1CCN(Cc2ccccc2)CC1
2. O=C1c2ccccc2C(=O)c2c1sc1nc3ccccc3n21

Key:
1: > 100 µM; 2: > 100 µM

Can you give me TGI for all of these, one by one?
1. COc1cc2c3c(n(CCCN=[N+]=[N-])c(=O)c2cc1OC)-c1ccc(NC(C)=O)cc1C3=O
2. N#Cc1n[nH]n(-c2ccccc2)c1=O

Key:
1. > 50 µM
2. > 100 µM
